Cited source for all entries: ChEMBL document CHEMBL2203116

# Translocator protein (Rattus norvegicus, UniProt P16257): Ki values follow
# Sequence (P16257 whole entry, looked up): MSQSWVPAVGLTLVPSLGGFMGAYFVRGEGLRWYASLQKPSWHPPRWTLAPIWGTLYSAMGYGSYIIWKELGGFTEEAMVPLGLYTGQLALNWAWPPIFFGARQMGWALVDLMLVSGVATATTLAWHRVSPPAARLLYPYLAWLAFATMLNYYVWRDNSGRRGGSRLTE
recorded metric: Ki (nM)

A. CCN(Cc1ccccc1)C(=O)Cn1c(=O)n(C)c2cnc(-c3ccccc3)nc21
B. CCN(Cc1ccncc1)C(=O)Cn1c(=O)n(C)c2cnc(-c3ccccc3)nc21
C. CN(Cc1cccnc1)C(=O)Cn1c(=O)n(C)c2cnc(-c3ccccc3)nc21
D. CCN(Cc1cccnc1)C(=O)Cn1c(=O)n(C)c2cnc(-c3ccccc3)nc21
-- ask Rank the items in ascending order with respect to Ki. # respond with the labels, arranged in the requested order
-- reply A, B, D, C
(A: 0.6 nM, B: 5.1 nM, D: 13.2 nM, C: 40 nM)

* * *

- measurement description: Lipophilicity, log D of the compound in octanol-phosphate buffer at pH 7.4 by shake flask method
- Type: physicochemical
recorded metric: logD

{"columns": ["molecule", "logD"],
 "data": [
  ["CCN(Cc1cccnc1)C(=O)Cn1c(=O)n(C)c2cnc(-c3ccccc3)nc21", 2.17],
  ["CC[C@@H](C)N(C)C(=O)c1cc2ccccc2c(-c2ccccc2Cl)n1 [(R)PK-11195]", 3.74]
]}

A. CN(Cc1cccnc1)C(=O)Cn1c(=O)n(C)c2cnc(-c3ccccc3)nc21
B. CCN(Cc1ccccc1)C(=O)Cn1c(=O)n(C)c2cnc(-c3ccccc3)nc21
-- ask Lower logD: A or B ? Returns: label corresponding to the selected item.
-- reply A

* * *

- measurement description: Metabolic stability in Sprague-Dawley rat kidney assessed as unchanged compound at 0.32 nmol, iv after 30 mins by analytical radio- HPLC
- Assay type: ADME, organism-based
- reported conditions: read-out: Stability
recorded metric: remaining at 0.5 h (%)
Response body: numeric value in %, unit text excluded.

-- ask GET /values?readout=remaining at 0.5 h&item= `CCN(Cc1ccncc1)C(=O)Cn1c(=O)n([11CH3])c2cnc(-c3ccccc3)nc21`
-- reply 94.7

* * *

- measurement description: Metabolic stability in Sprague-Dawley rat heart assessed as unchanged compound at 0.32 nmol, iv after 30 mins by analytical radio- HPLC
- Type: ADME, organism-based
- reported conditions: read-out: Stability
recorded metric: remaining at 0.5 h (%)
Response body: numeric value in %, unit text excluded.

-- ask GET /values?readout=remaining at 0.5 h&item= `CCN(Cc1ccncc1)C(=O)Cn1c(=O)n([11CH3])c2cnc(-c3ccccc3)nc21`
-- reply 93.8

* * *

- measurement description: Metabolic stability in Sprague-Dawley rat lung assessed as unchanged compound at 0.32 nmol, iv after 30 mins by analytical radio- HPLC
- Format: ADME, organism-based
- reported conditions: read-out: Stability
recorded metric: remaining at 0.5 h (%)
Response body: numeric value in %, unit text excluded.

-- ask GET /values?readout=remaining at 0.5 h&item= `CCN(Cc1ccncc1)C(=O)Cn1c(=O)n([11CH3])c2cnc(-c3ccccc3)nc21`
-- reply 92.1
